Entries and their Per cent adsorbed (per cent adsorbed, printed as fraction)
molecular target: artificial cell surface (ACS): biotinylated cell surface proteins from human mononuclear blood cells coupled to streptavidin-sepharose; test: ACS affinity column adsorption of ASP-N dHSA peptides (700-3600 Da), MALDI-TOF ms
Where no end group is shown, it is not given here. The star is where a group is joined. Cam = NC(=O)C*
Please respond with just the number, no unit label.

DRVTKC(Cam)C(Cam)TESLVNRRPC(Cam)FSALEV [HSA ASP-N peptide residues 495-517 …]
0.87

Tell us which Per cent adsorbed (per cent adsorbed, printed as fraction) value is on record for DKLC(Cam)TVATLRETYGEM [HSA ASP-N peptide residues 96-112 …]
0.65

Tell us which Per cent adsorbed (per cent adsorbed, printed as fraction) value is on record for DHVKLVNEVTEFAKTC(Cam)VA [HSA ASP-N peptide residues 62-79 …]
1

Tell us which Per cent adsorbed (per cent adsorbed, printed as fraction) value is on record for DSISSKLKEC(Cam)C(Cam)EKPLLEKSHC(Cam)IAEVEN [HSA ASP-N peptide residues 293-319 …]
0.65

Tell us which Per cent adsorbed (per cent adsorbed, printed as fraction) value is on record for DDKETC(Cam)FAEEGKKLVAASQAALGL [HSA ASP-N peptide residues 586-609 …]
1

Tell us which Per cent adsorbed (per cent adsorbed, printed as fraction) value is on record for DETYVPKEFNAETFTHA [HSA ASP-N peptide residues 518-535 …]
0.86
